test system: LNCaP; experiment: cells; conditions: Homo sapiens, 96 h, read-out: IC50 ± SEM (nM), LNCaP
Would you kindly list IC50 for each of these compounds?

-- ask Using the record for COc1cc([S+]([O-])c2cccc(-c3ccccc3)c2)cc(OC)c1OC (stereo not drawn) [4c] , report its IC50.
-- reply > 10000 nM

-- ask Please report the recorded IC50 for CNCc1ccc(-c2nc(C(=O)c3cc(OC)c(OC)c(OC)c3)cs2)cc1.Cl [2s, hydrochloride] .
-- reply 114 nM

-- ask Entry COc1cc(C(=O)c2c[nH]c(-c3ccc(OCc4ccccc4)cc3)n2)cc(OC)c1OC [12ja] : reported IC50 = ?
-- reply 2790 nM

-- ask Report IC50 for O=C(c1ccc(F)cc1)c1cn(S(=O)(=O)c2ccccc2)c(-c2ccccc2)n1 [11af] please.
-- reply 573 nM

-- ask For the compound COc1ccc(S(=O)(=O)n2cc(C(=O)c3ccc(F)cc3)nc2-c2ccc(N(C)C)cc2)cc1 [12gba] , what IC50 is on record?
-- reply 73.2 nM

-- ask Any idea what IC50 was measured for COc1cc(C(=O)c2csc(Nc3ccccc3)n2)cc(OC)c1OC [5a] ?
-- reply 51 nM

-- ask IC50 lookup needed for COc1cc(C(=O)c2cc(-c3ccccc3)ncn2)cc(OC)c1OC [1b] , thanks.
-- reply 7000 nM

-- ask Fill in: IC50 of COc1ccc(-c2nc(C(=O)c3ccc(F)cc3)cn2S(=O)(=O)c2ccccc2)cc1 [11cb] is ___
-- reply 31 nM

-- ask Reported IC50, compound O=C(c1ccc(F)cc1)c1c[nH]c(-c2ccc(OCc3ccccc3)cc2)n1 [12jb] : ____
-- reply 44 nM
